All values here come from patent US11578084B2.

Biological target: human recombinant dopamine D2 receptor (Homo sapiens (Human), UniProt P14416)
Sequence (P14416 whole entry): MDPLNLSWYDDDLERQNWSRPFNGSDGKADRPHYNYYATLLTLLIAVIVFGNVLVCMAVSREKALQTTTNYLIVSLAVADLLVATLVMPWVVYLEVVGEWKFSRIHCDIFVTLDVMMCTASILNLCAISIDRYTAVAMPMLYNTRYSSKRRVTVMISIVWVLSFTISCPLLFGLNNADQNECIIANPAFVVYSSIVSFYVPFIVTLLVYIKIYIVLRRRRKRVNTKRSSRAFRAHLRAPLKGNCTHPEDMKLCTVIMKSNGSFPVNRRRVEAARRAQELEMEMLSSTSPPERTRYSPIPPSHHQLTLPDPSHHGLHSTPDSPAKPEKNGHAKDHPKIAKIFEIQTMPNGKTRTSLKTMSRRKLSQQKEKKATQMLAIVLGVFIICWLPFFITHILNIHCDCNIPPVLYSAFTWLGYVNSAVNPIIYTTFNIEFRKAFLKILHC
Assay: Test of binding inhibition for dopamine D2 receptor ([3H]-Methylspiperone SPA)
Details: Jump-In HEK cell membranes, 1.2 nM [3H]-Methylspiperone, 120 min at 25° C.; read-out: hD2_Ki
Some compounds, each annotated with its measured pKi.
Value format note: pKi is -log10 of concentration (mol/L); just state the number.

Input: Query: pKi; subject: `Cn1cc2c(C(=O)N[C@H]3CC[C@H](CCN4CCc5sc([C@H]6C[C@@H](F)C6)nc5C4)CC3)cccc2n1`
Output: 6.68

Input: Thanks! And `Cc1ncc(OCC(=O)N[C@H]2CC[C@H](CCN3CCc4ccc(OCC(F)F)nc4CC3)CC2)cn1` ?
Output: 6.05

Input: Quick one: `CCn1c(C(=O)N[C@H]2CC[C@H](CCN3CCc4ccc(OCC(F)F)nc4CC3)CC2)cccc1=O`
Output: 6.51

---

Target: human recombinant dopamine D2 receptor (Homo sapiens (Human))
Assay: Test of binding inhibition for dopamine D2 receptor ([3H]-Methylspiperone SPA)
Details: Jump-In HEK cell membranes, 1.2 nM [3H]-Methylspiperone, 120 min at 25° C.; read-out: hD2_Ki
Procedure: (Experimental Conditions) Cell membranes: Jump-In HEK cell membranes expressing human recombinant dopamine D2 receptor (2 μg/well) Non-specific ligand: (final concentration) 10 μM Butaclamol [(+)-Butaclamol Hydrochloride, D033, Sigma] SPA beads solution: SPA beads [WGA PVT SPA Scintillation Beads, RPNQ0001 (500 mg), RPNQ0060 (2 g), PerkinElmer] (0.2 mg/well) Incubation time and temperature: 120 min at 25° C. […]
Reported values of Ki for individual entries

// worked examples, Ki included
compound: Cc1nc(CC(=O)N[C@H]2CC[C@](F)(CCN3CCc4ccc(O[C@H](C)C(F)(F)F)nc4CC3)CC2)nn1C
readoutValue: 850 nM

compound: Cn1c(C(=O)NN2CCC(CCN3CCc4sc(OCC(F)(F)F)nc4C3)CC2)cccc1=O
readoutValue: 2100 nM

compound: Cn1c(C(=O)N[C@H]2CC[C@H](CCN3CCc4nc(OCC(C)(F)F)sc4CC3)CC2)cccc1=O
readoutValue: 490 nM

compound: Cc1nc(CC(=O)N[C@H]2CC[C@](F)(CCN3CCc4nc(OCC(F)F)sc4CC3)CC2)no1
readoutValue: 1200 nM

compound: COC(CN1CCc2sc(OCC(C)(F)F)nc2C1)C1CC2(CC(NC(=O)c3cccc4nn(C)cc34)C2)C1 (single isomer, unassigned)
readoutValue: 110 nM

compound: Cc1cc(OCC(=O)N[C@H]2CC[C@H](CCN3CCc4nc(OC5CC(F)(F)C5)sc4CC3)CC2)no1
readoutValue: > 2300 nM

Input: Requested read-out: Ki. Entry: `COc1cc(CC(=O)N[C@H]2CC[C@](F)(CCN3CCc4ccc(OCC(F)F)nc4CC3)CC2)on1`
Output: > 2200 nM

Input: `Cc1nnc(CC(=O)N[C@H]2CC[C@H](CCN3CCc4nc(O[C@H](C)C(F)(F)F)sc4CC3)CC2)s1` , same question.
Output: 1100 nM

---

Target: hERG channel (IKr) (Homo sapiens (Human))
Sequence (Q12809 whole entry): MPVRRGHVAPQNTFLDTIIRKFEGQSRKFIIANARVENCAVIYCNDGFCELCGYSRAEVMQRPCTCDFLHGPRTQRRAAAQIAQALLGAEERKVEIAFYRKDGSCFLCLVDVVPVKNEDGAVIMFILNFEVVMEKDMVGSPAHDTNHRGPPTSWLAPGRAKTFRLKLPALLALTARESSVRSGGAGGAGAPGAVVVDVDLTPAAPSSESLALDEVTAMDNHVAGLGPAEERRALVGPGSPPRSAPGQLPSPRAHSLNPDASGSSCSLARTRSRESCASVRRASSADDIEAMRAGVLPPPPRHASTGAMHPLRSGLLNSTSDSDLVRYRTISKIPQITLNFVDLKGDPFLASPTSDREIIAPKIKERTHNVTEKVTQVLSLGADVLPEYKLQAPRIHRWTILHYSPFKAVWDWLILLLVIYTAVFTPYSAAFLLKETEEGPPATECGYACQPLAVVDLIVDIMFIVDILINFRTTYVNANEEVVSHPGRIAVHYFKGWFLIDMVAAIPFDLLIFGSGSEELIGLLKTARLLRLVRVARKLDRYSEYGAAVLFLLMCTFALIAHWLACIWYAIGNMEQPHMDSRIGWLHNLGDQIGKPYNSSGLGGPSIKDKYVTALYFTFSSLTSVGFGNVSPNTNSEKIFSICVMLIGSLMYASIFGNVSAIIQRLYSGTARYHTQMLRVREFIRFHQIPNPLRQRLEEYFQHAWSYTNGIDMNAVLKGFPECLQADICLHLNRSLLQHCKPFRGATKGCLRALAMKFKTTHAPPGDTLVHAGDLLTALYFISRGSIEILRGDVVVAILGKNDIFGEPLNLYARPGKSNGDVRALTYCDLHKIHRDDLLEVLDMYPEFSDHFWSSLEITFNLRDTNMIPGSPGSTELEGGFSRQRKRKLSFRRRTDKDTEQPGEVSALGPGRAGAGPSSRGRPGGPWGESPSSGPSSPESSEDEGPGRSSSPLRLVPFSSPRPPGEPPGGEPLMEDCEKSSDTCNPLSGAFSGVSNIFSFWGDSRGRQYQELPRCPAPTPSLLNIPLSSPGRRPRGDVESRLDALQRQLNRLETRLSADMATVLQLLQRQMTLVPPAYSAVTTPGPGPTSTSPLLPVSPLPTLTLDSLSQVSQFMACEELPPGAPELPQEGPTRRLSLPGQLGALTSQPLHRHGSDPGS
Assay: hERG test (whole cell patch clamp, IKr)
Format: cell-based
Conditions: human, CHO cells expressing hERG channel, pH 7.4, 3 μM, tail peak current
# inhibition at 3 µM annotations
// return numeric value only (unit: %, not printed)

Below, 4 compounds whose answers are already recorded.
compound: Cc1nnc(CC(=O)N[C@H]2CC[C@](F)(CCN3CCc4nc(OCC(C)(F)F)sc4CC3)CC2)s1
studyTarget: hERG channel (IKr) (Homo sapiens (Human))
inhibition at 3 µM (%): 25.9
--
compound: COC(CN1CCc2ccc(OCC(F)(F)F)nc2CC1)[C@H]1CC[C@H](NC(=O)Cc2cnc(C)o2)CC1 (single isomer, unassigned)
studyTarget: hERG channel (IKr) (Homo sapiens (Human))
inhibition at 3 µM (%): 18.3
--
compound: Cc1ncc(CC(=O)N[C@H]2CC[C@](F)(CCN3CCc4nc(OCC(C)(F)F)sc4CC3)CC2)o1
studyTarget: hERG channel (IKr) (Homo sapiens (Human))
inhibition at 3 µM (%): 20.7
--
compound: Cn1cc2c(C(=O)N[C@H]3CC[C@H](CCN4CCc5sc([C@H]6C[C@@H](F)C6)nc5C4)CC3)cccc2n1
studyTarget: hERG channel (IKr) (Homo sapiens (Human))
inhibition at 3 µM (%): 16

Input: Can you share its inhibition at 3 µM? I mean this compound: `CC[C@@H](C)Oc1ccc2c(n1)CCN(CC[C@]1(F)CC[C@@H](NC(=O)Cc3nnc(C)s3)CC1)CC2`
Output: 27

Input: Could you do the same for `Cn1cc(CC(=O)N[C@H]2CC[C@H](CCN3CCc4nc(OCC(C)(F)F)sc4CC3)CC2)cn1` , please?
Output: 21.6

Input: Would you kindly repeat that for `Cn1cc(/C=C/C(=O)N[C@H]2CC[C@](F)(CCN3CCc4nc(OCC(C)(F)F)sc4CC3)CC2)cn1` ?
Output: 31
